Just for reference, patent US10864192B2 is where these values come from.

assay: Lipophilicity (Log D); format: physicochemical
MEASUREMENT LABEL: logD

>  <MOLECULE>
CN1CC[C@@]2(C)c3cc(OC(=O)Nc4ccccc4)ccc3N(C)[C@@H]12 [phenserine, (−)-phenylcarbamoyleseroline]

>  <RECORDED MEASUREMENT>
2.2

$$$$

###

Catalogue of concentration at 3 h readings, one per entry.
assay: Plasma concentrations of phenserine and its metabolites in beagle dog plasma; type: in vivo; conditions: beagle, in vivo, Hour 3
MEASUREMENT LABEL: concentration at 3 h (ng/mL)

>  <MOLECULE>
CN1CC[C@@]2(C)c3cc(OC(=O)Nc4ccccc4)ccc3N[C@@H]12 [N8-nor-phensereine, (−)-N8-norphenylcarbamoyleseroline]

>  <RECORDED MEASUREMENT>
9.06

$$$$
>  <MOLECULE>
C[C@@]12CCN[C@@H]1Nc1ccc(OC(=O)Nc3ccccc3)cc12

>  <RECORDED MEASUREMENT>
428

$$$$
>  <MOLECULE>
CN1c2ccc(OC(=O)Nc3ccccc3)cc2[C@]2(C)CCN[C@H]12 [N1-nor-phenserine, (−)-N1-norphenylcarbamoyleseroline]

>  <RECORDED MEASUREMENT>
86.7

$$$$

###

Catalogue of concentration at 2 h readings, one per entry.
assay: Plasma concentrations of phenserine and its metabolites in wistar rat plasma; conditions: in vivo, Hour 2
MEASUREMENT LABEL: concentration at 2 h (ng/mL)

>  <MOLECULE>
CN1CC[C@@]2(C)c3cc(OC(=O)Nc4ccccc4)ccc3N[C@@H]12 [N8-nor-phensereine, (−)-N8-norphenylcarbamoyleseroline]

>  <RECORDED MEASUREMENT>
69.2

$$$$
>  <MOLECULE>
C[C@@]12CCN[C@@H]1Nc1ccc(OC(=O)Nc3ccccc3)cc12

>  <RECORDED MEASUREMENT>
539

$$$$
>  <MOLECULE>
CN1c2ccc(OC(=O)Nc3ccccc3)cc2[C@]2(C)CCN[C@H]12 [N1-nor-phenserine, (−)-N1-norphenylcarbamoyleseroline]

>  <RECORDED MEASUREMENT>
26.2

$$$$
